experiment: Pharmacokinetics in serum and brain of mice (LC-MS); format: in vivo, mouse; conditions: mouse, serum and brain; C57B6 mice, single 10 mg/kg dose IP; read-out: t1/2 of clearance from serum and brain (first-order kinetics)
measure: half-life

- molecule: "C[C@@H](N)C1CCC(C(=O)Nc2ccncc2)CC1 (stereo partly shown)"
  measure: "half-life"
  endpoint-value: "~1 h"

* * *

biological target: htt(72)CFP/YFP (Homo sapiens, UniProt P42858, INS38QQQQQQQQQQQQQQQQQQQQQQQQQQQQQQQQQQQQQQQQQQQQQQQQQQQ); construct: htt exon 1 fragment derived from plasmid qp72; expressed in transfected cells; host or cells: HEK293; assay: FRET based assay of htt aggregation; type: cell-based; conditions: HEK293, htt(72)CFP/YFP, 24 hours
Sequence (P42858 with tags, fused parts or gaps, stated change not applied): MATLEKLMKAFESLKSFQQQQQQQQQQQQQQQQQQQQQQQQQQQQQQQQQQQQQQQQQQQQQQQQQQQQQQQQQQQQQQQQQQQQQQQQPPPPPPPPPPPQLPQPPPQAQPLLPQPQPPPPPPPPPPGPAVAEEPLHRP
measure: Max % Inh. in Htt (%)

- molecule: "Oc1cc(O)cc(/C=C/c2ccc(O)c(O)c2)c1 [Piceatannol, 3,3′4,5′-Tetrahydroxy-Trans-stilbene]"
  units: "%"
  endpoint-value: 28
- molecule: "COc1cc2nc[nH]c(=O)c2cc1OC(C)=O"
  units: "%"
  endpoint-value: 15
- molecule: "COc1cc2ncnc(Nc3ccc(F)c(Cl)c3)c2cc1OC(C)=O"
  units: "%"
  endpoint-value: 21
- molecule: "COc1cc2ncnc(Nc3ccc(F)c(Cl)c3)c2cc1OCCCN1CCOCC1"
  units: "%"
  endpoint-value: 20
